# credit: PubChem BioAssay AID1259407

- Tested on: CCRIS mutagenicity, Ames/micronucleus/aberration tests
- Experiment summary: CCRIS mutagenicity studies
- Assay setup: Test System: AMES SALMONELLA TYPHIMURIUM; Strain/Indicator: TA1535; Metabolic Activation: RAT, LIVER, S-9, TETRACHLOROBIPHENYL; Method: PREINCUBATION
Activity calls are given as the source filed them. How the calls were made is not given here.
Returns: one label drawn from 1 for active, 0 for inactive

Examples with answers:
- Smiles repr: "Nc1cccc2nc3ccccc3c(N)c12"
  Target entity: "CCRIS mutagenicity, Ames/micronucleus/aberration tests"
  Class: 1
- Smiles repr: "C[n+]1c2cc(N)ccc2cc2ccc(N)cc21"
  Target entity: "CCRIS mutagenicity, Ames/micronucleus/aberration tests"
  Class: 0
- Smiles repr: "Nc1ccc2nc3ccccc3cc2c1"
  Target entity: "CCRIS mutagenicity, Ames/micronucleus/aberration tests"
  Class: 1

How was Nc1ccc2cc3ccc(N)cc3nc2c1 classified in this test?
0

###

- Test system: CCRIS mutagenicity, Ames/micronucleus/aberration tests
- Experiment summary: CCRIS mutagenicity studies
- Assay setup: Test System: AMES SALMONELLA TYPHIMURIUM; Strain/Indicator: TA100; Metabolic Activation: RAT LIVER S-9, PHENOBARBITAL AND BETA-NAPHTHOFLAVONE; Method: PREINCUBATION
Calls of active or inactive are those of the source. No rule for the calls is given here.
Returns: one label drawn from active, inactive

Examples with answers:
- Molecule: "Cc1ccccc1Cl"
  Class: "inactive"
- Molecule: "O=Cc1ccco1"
  Class: "inactive"
- Molecule: "O=c1n(CC2CO2)c(=O)n(CC2CO2)c(=O)n1CC1CO1 (centres undefined)"
  Class: "active"
- Molecule: "CCCCCCCCCCCCCC(=O)O"
  Class: "inactive"
- Molecule: "CCCCCCCCCCCCCCCC(=O)O"
  Class: "inactive"

How was O=C1OC(=O)c2ccccc21 classified in this test?
inactive

Follow-up entry: Cc1ccc(N)cc1C
inactive

Follow-up entry: O=C(O)CBr
inactive

Follow-up entry: OB(O)O
inactive

###

- Test system: CCRIS mutagenicity, Ames/micronucleus/aberration tests
- Experiment summary: CCRIS mutagenicity studies
- Assay setup: Test System: AMES SALMONELLA TYPHIMURIUM; Strain/Indicator: TA98; Metabolic Activation: RAT, LIVER, S-9, AROCLOR 1254; Method: SPIRAL ASSAY
Active and inactive are the calls of the source. No rule for the calls is given here.
Experimental endpoint: mutagenic call

- Smiles repr: "O=[N+]([O-])c1ccc2c(c1)Cc1ccccc1-2"
  Experimental endpoint: "mutagenic call"
  Observed result: "active; positive"
- Smiles repr: "Cc1c2ccccc2c(C)c2c1ccc1ccccc12"
  Experimental endpoint: "mutagenic call"
  Observed result: "active; positive"
- Smiles repr: "CC(=O)Nc1ccc2c(c1)Cc1ccccc1-2"
  Experimental endpoint: "mutagenic call"
  Observed result: "active; positive"

###

- System: CCRIS mutagenicity, Ames/micronucleus/aberration tests
- Experiment summary: CCRIS mutagenicity studies
- Assay setup: Test System: AMES SALMONELLA TYPHIMURIUM; Strain/Indicator: TA98; Method: STANDARD PLATE
Activity calls are given as the source filed them. No rule for the calls is given here.
Returns: one label drawn from true = active, false = inactive

Examples with answers:
- Smiles repr: "CCc1c2ccccc2c(CC)c2c1ccc1ccccc12"
  Class: "false"
- Smiles repr: "CCc1c2ccccc2cc2ccc3ccccc3c12"
  Class: "false"
- Smiles repr: "Cc1c2ccccc2c(C)c2c1ccc1ccccc12"
  Class: "true"

Next, consider the following compound.
How was CN(C)CCN(Cc1cccs1)c1ccccn1 classified in this test?
false
